system: OVCAR-3 ovarian; assay: NCI-60 one-dose screen, 48 h (100 = growth as untreated, 0 = no growth, -100 = all killed); details: 10 µM unless noted
About 83,000 compounds went through this panel and 20% of them were active in at least one assay; those are over-represented in the sample as a whole.
ENDPOINT_LABEL: growth (%)

1. C=CCc1c2c(c(OC)c3ccoc13)C(=O)/C(=C/c1ccccc1OC)O2 : 40.6
2. Oc1ccc(CCn2c(O)c(/C=C3\CN=c4ccccc4=N3)sc2=S)cc1 : 44.7
3. CCOC(=O)C(=Cc1cccc(Br)c1)C(=O)OCC : 15.6
4. CCOC(=O)/C=C1\S/C(=N\Nc2cc(=O)[nH]c3ccc(Cl)cc23)N(c2ccccc2)C1=O : 71.4
5. O=C1/C(=C/c2ccc(F)cc2)COc2ccc(O)c(O)c21 : -2.58
6. CCOC(=O)c1nc(Nc2ccc(NC(=O)Nc3ccc(F)cc3)cc2)c2ccccc2n1 : 102
7. CCCC(O)Cn1ncc(C(=O)OCC)c1NC(=O)NCc1ccccc1F (stereo not given) : 91.1
8. COC1=CC(c2ccc[nH]2)=N/C1=C\c1[nH]c(C)c(C(=O)OCc2ccccc2)c1C : -66
9. Cc1ccc(CNc2ccc(Cl)cc2NCc2ccc(C)c(O)c2)cc1O : 10.9
10. COc1ccccc1NC(=O)Cn1cc(CN2CCN(c3ccnc4cc(Cl)ccc34)CC2)nn1 : 101

Ref: PubChem BioAssay (NCI)
